Cited source for all entries: patent US11207312B2

# Tested on: P. aeruginosa MB9798 (efflux+, IMP-1 plasmid)
# condition-set: efflux + (MB9798) strain; imipenem at 2 μg/mL; in the presence of a class A, C, D serine β-lactamase inhibitor closely related to relebactam
Answer Not met if MB9798 MITC95 P. aeruginosa uM Efflux WT is under 2 µM, and Met if it is 2 µM or more.

NC1CCCN(c2ccc(S(=O)(=O)C3CNC3)c(S(N)(=O)=O)c2-c2nnn[nH]2)CC1 (centres unmarked) : Met
NC[C@@H](O)CNS(=O)(=O)c1ccc(N2CCC(NCCO)CC2)c(-c2nn[nH]n2)c1S(N)(=O)=O [Example 142, bis(2,2,2-trifluoroacetate)] : Not met
NC[C@@H](O)CNS(=O)(=O)c1ccc(N2CCC(CO)CC2)c(-c2nnn[nH]2)c1S(N)(=O)=O : Not met

Does the compound `NCCC1CN(c2ccc(S(=O)(=O)NC[C@H](O)CN)c(S(N)(=O)=O)c2-c2nn[nH]n2)C1` have recorded MB9798 MITC95 P. aeruginosa uM Efflux WT that is 2 µM or more?
Met

Does the compound `C[C@@H](CN)NS(=O)(=O)c1ccc(N2CCC(O)(CN)CC2)c(-c2nn[nH]n2)c1S(N)(=O)=O` have recorded MB9798 MITC95 P. aeruginosa uM Efflux WT that is 2 µM or more?
Not met

Does the compound NS(=O)(=O)c1c(S(=O)(=O)N[C@@H]2CCNC2)ccc(N2CCC(O)CC2=O)c1-c1nn[nH]n1 (some centres unmarked) have recorded MB9798 MITC95 P. aeruginosa uM Efflux WT that is 2 µM or more?
Met

Does the compound `NS(=O)(=O)c1c(S(=O)(=O)N[C@@H]2CCNC2)ccc(N2CCCNC2=O)c1-c1nn[nH]n1` have recorded MB9798 MITC95 P. aeruginosa uM Efflux WT that is 2 µM or more?
Met

====

# Test system: P. aeruginosa MB9798 (efflux+, IMP-1 plasmid)
# condition-set: efflux + (MB9798) strain; imipenem at 2 μg/mL; in the presence of a class A, C, D serine β-lactamase inhibitor closely related to relebactam
# Source text: The strain background is Pseudomonas aeruginosa PAO1. A wild-type (M135919) and an isogenic strain in which multiple efflux pumps have been disrupted genetically were used. The MBL IMP-1, obtained from a clinical isolate was introduced into the strain pair by the following process: The plasmid DNA was transformed into parental MB5919 (oprD+, efflux+, inducible AmpC) and MB5890 (oprD+, efflux−, inducible AmpC) isogenic strains by electroporation. […]
Answer Not satisfied if MB9798 MITC95 P. aeruginosa uM Efflux WT is under 6 µM, and Satisfied if it is 6 µM or more.

Does the compound `NS(=O)(=O)c1c(S(=O)(=O)C2CNC2)ccc(N2CCN(CCCO)CC2)c1-c1nnn[nH]1` have recorded MB9798 MITC95 P. aeruginosa uM Efflux WT that is 6 µM or more?
Satisfied

Does the compound `NC[C@@H](O)CNS(=O)(=O)c1ccc(N2CCC(N)CC2)c(-c2nn[nH]n2)c1S(N)(=O)=O` have recorded MB9798 MITC95 P. aeruginosa uM Efflux WT that is 6 µM or more?
Not satisfied

Does the compound `NC[C@@H](O)CNS(=O)(=O)c1ccc(Nc2ncc[nH]2)c(-c2nn[nH]n2)c1S(N)(=O)=O` have recorded MB9798 MITC95 P. aeruginosa uM Efflux WT that is 6 µM or more?
Not satisfied

Does the compound `NS(=O)(=O)c1c(S(=O)(=O)N[C@@H]2CCNC2)ccc(N2CCC(CCF)CC2)c1-c1nnn[nH]1` have recorded MB9798 MITC95 P. aeruginosa uM Efflux WT that is 6 µM or more?
Satisfied

Does the compound `NC[C@H](N)CNS(=O)(=O)c1ccc(N2CCC(c3c[nH]cn3)CC2)c(-c2nn[nH]n2)c1S(N)(=O)=O` have recorded MB9798 MITC95 P. aeruginosa uM Efflux WT that is 6 µM or more?
Not satisfied

====

# tested-target: IMP-1 (Serratia marcescens)
# Sequence (P52699 whole entry, looked up, species assumed): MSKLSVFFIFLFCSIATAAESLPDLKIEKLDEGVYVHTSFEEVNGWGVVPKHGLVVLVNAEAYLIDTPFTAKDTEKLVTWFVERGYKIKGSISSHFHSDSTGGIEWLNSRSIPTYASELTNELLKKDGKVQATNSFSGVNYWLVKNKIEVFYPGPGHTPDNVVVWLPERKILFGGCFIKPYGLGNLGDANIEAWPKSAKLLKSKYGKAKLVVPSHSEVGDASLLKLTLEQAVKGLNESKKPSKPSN
pIC50: −log10 of the molar value.
Answer N if pIC50 is under 9, and Y if it is 9 or more.

NS(=O)(=O)c1c(S(=O)(=O)N[C@@H]2CCNC2)ccc(NCCN2CCOCC2)c1-c1nnn[nH]1 : N
NCCNS(=O)(=O)c1ccc(N2CCC(CN)CC2)c(-c2nnn[nH]2)c1S(N)(=O)=O : N
N[C@@H]1CCCN(c2ccc(S(=O)(=O)C3CNC3)c(S(N)(=O)=O)c2-c2nnn[nH]2)C1 : N
NS(=O)(=O)c1c(S(=O)(=O)N[C@@H]2CCNC2)ccc(N2CCC(O)CC2=O)c1-c1nn[nH]n1 (some centres unmarked) : N
NS(=O)(=O)c1c(S(=O)(=O)C2CNC2)ccc(N2CC3C(CO)C3C2)c1-c1nnn[nH]1 (centres unmarked) : N

Shifting focus to the molecule that follows.
Does the molecule `NCCNS(=O)(=O)c1ccc(N2CCN(CCO)CC2)c(-c2nnn[nH]2)c1S(N)(=O)=O` have recorded pIC50 that is 9 or more?
N

====

# Tested on: Serratia marcescens expressing IMP-1 (CL5741)
# Assay type: cell-based
# condition-set: with imipenem 1 μg/ml; 95% inhibition of bacterial growth
Answer 0 if CL5741 S. marcescens MITC95 IMP is under 0.8 µM, and 1 if it is 0.8 µM or more.

Observe how each entry below is paired with its result.
NC[C@@H](O)CNS(=O)(=O)c1ccc(N2CC[C@@H](CN)C2)c(-c2nn[nH]n2)c1S(N)(=O)=O : 1
NS(=O)(=O)c1c(S(=O)(=O)N[C@@H]2CCNC2)ccc(N2CCCC(CO)C2)c1-c1nnn[nH]1 (stereo partly shown) : 1
NS(=O)(=O)c1c(S(=O)(=O)N[C@@H]2CCNC2)ccc(N2CC[C@H](O)C2)c1-c1nnn[nH]1 : 1
NC[C@@H](O)CNS(=O)(=O)c1ccc(N2CC[C@H](CN)[C@@H](O)C2)c(-c2nn[nH]n2)c1S(N)(=O)=O : 0

Shifting focus to the molecule that follows.
Does the molecule NC(=O)C1CCN(c2ccc(S(=O)(=O)N[C@@H]3CCNC3)c(S(N)(=O)=O)c2-c2nn[nH]n2)CCN1 (stereo partly shown) have recorded CL5741 S. marcescens MITC95 IMP that is 0.8 µM or more?
0

====

Catalogue of CL5741 S. marcescens MITC95 IMP values
# Tested on: Serratia marcescens expressing IMP-1 (CL5741)
# Type: cell-based
# condition-set: with imipenem 1 μg/ml; 95% inhibition of bacterial growth
Value expressed in µM; do not type the unit.

Here are 3 compounds together with their reported answers.
NS(=O)(=O)c1c(S(=O)(=O)N[C@@H]2CCNC2)ccc(NC2CCOCC2)c1-c1nnn[nH]1 : 3.13
NS(=O)(=O)c1c(S(=O)(=O)N[C@@H]2CCNC2)ccc(N2CCCC(=O)C2=O)c1-c1nn[nH]n1 : 1.56
NCCN1CCN(c2ccc(S(=O)(=O)NC[C@H](O)CN)c(S(N)(=O)=O)c2-c2nn[nH]n2)CC1=O : 0.78

GET /values?readout=CL5741 S. marcescens MITC95 IMP&system=Serratia marcescens expressing IMP-1 (CL5741)&item= NS(=O)(=O)c1c(S(=O)(=O)N[C@@H]2CCNC2)ccc(N2CCCCC(O)C2)c1-c1nnn[nH]1 (stereo partly shown)
3.13

GET /values?readout=CL5741 S. marcescens MITC95 IMP&system=Serratia marcescens expressing IMP-1 (CL5741)&item= `NS(=O)(=O)c1c(S(=O)(=O)N[C@@H]2CCNC2)ccc(N2CCNC2=S)c1-c1nn[nH]n1`
1.56

GET /values?readout=CL5741 S. marcescens MITC95 IMP&system=Serratia marcescens expressing IMP-1 (CL5741)&item= `NCCOCC1CCN(c2ccc(S(=O)(=O)NC[C@H](O)CN)c(S(N)(=O)=O)c2-c2nn[nH]n2)CC1`
0.78

GET /values?readout=CL5741 S. marcescens MITC95 IMP&system=Serratia marcescens expressing IMP-1 (CL5741)&item= `NCC1=CCN(c2ccc(S(=O)(=O)NC[C@H](O)CN)c(S(N)(=O)=O)c2-c2nn[nH]n2)C1.O=C(O)C(F)(F)F.O=C(O)C(F)(F)F`
1.56

====

Catalogue of MB9798 MITC95 P. aeruginosa uM Efflux WT values
# Tested on: P. aeruginosa MB9798 (efflux+, IMP-1 plasmid)
# condition-set: efflux + (MB9798) strain; imipenem at 2 μg/mL; in the presence of a class A, C, D serine β-lactamase inhibitor closely related to relebactam
Value expressed in µM; do not type the unit.

Here are 5 compounds together with their reported answers.
Cl.Cl.NCC1CCN(c2ccc(S(=O)(=O)N[C@@H]3CCNC3)c(S(N)(=O)=O)c2-c2nn[nH]n2)CC1 : 0.59
NCC1C2CCC1CN(c1ccc(S(=O)(=O)NC[C@H](O)CN)c(S(N)(=O)=O)c1-c1nn[nH]n1)C2 (stereo partly drawn) : 1.17
NC[C@@H](O)CNS(=O)(=O)c1ccc(N2CC[C@@H](N)[C@@H](F)C2)c(-c2nn[nH]n2)c1S(N)(=O)=O (single isomer, unassigned) [Example 1] : 0.78
CC1CN(c2ccc(S(=O)(=O)NC[C@H](O)CN)c(S(N)(=O)=O)c2-c2nn[nH]n2)CCN1CCO.O=C(O)C(F)(F)F.O=C(O)C(F)(F)F (stereo partly drawn) : 3.13
NC[C@@H](O)CNS(=O)(=O)c1ccc(N2CCC(n3ccnc3)CC2)c(-c2nnn[nH]2)c1S(N)(=O)=O : 3.13

As a next step, examine the compound that follows.
Fill in: MB9798 MITC95 P. aeruginosa uM Efflux WT of `NS(=O)(=O)c1c(S(=O)(=O)N[C@@H]2CCNC2)ccc(N2CCC(CCO)CC2)c1-c1nnn[nH]1` is ___
3.13
